# measured_on: T1, Goat anti-Human Kappa
# T1 construct: Positive control of the ELISA; also called biotinylated goat anti-human kappa light chain
# assay_info: ELISA, positive control; note: test concentration or dose not given here
quantity_kind: optical density (OD)
Please state the figure in OD; there is no need to write the unit.

370_C05 (antibody, V domains shown) VH: EVQLLESGGGLVQPGGSLRLSCAASGFTFSSYSMNWVRQAPGKGLEWVAGINYNSGYTGYADSVKGRFTISRDNSKNTLYLQMNSLRAEDTAVYYCARSANWHDTALDYWGQGTLVTVSS VL: DIQMTQSPSSLSASVGDRVTITCRASQSILSYVNWYQQKPGKAPKLVIYAATSRASGVPSRFSGSGSGTDFTLTISSLQPEDFATYYCQQSYNSPLTFGGGTKVEIK	3.56
370_D04 (antibody, V domains shown) VH: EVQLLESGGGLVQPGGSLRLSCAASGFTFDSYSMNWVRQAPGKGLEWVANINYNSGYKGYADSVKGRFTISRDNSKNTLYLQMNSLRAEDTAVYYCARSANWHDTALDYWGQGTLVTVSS VL: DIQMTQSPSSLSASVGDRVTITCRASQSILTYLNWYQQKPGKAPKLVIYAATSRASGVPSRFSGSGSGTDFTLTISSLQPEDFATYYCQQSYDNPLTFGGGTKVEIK	3.6
368_E06 (antibody, V domains shown) VH: EVQLLESGGGLVQPGGSLRLSCAASGFTFSDYGMHWVRQAPGKGLEWVSGINYNGGYTGYADSVKGRFTISRDNSKNTLYLQMNSLRAEDTAVYYCARSANWHDTALDYWGQGTLVTVSS VL: DIQMTQSPSSLSASVGDRVTITCRASQSILSYLNWYQQKPGKAPKLVIYGATSRASGVPSRFSGSGSGTDFTLTISSLQPEDFATYYCQQSYDSPLTFGGGTKVEIK	3.5
372_B04 (antibody, V domains shown) VH: EVQLLESGGGLVQPGGSLRLSCAASGFTFDSYGMNWVRQAPGKGLEWVANINYNGGYTSYADSVKGRFTISRDNSKNTLYLQMNSLRAEDTAVYYCARSANWHDTALDYWGQGTLVTVSS VL: DIQMTQSPSSLSASVGDRVTITCRASQSILSYVNWYQQKPGKAPKLVIYAATSLASGVPSRFSGSGSGTDFTLTISSLQPEDFATYYCQQSYDSPLTFGGGTKVEIK	3.59
373_A02 (antibody, V domains shown) VH: EVQLLESGGGLVQPGGSLRLSCAASGFTFDSYGMNWVRQAPGKGLEWVSGINYNGGYKGYADSVKGRFTISRDNSKNTLYLQMNSLRAEDTAVYYCARSANWHDTALDYWGQGTLVTVSS VL: DIQMTQSPSSLSASVGDRVTITCRASQSILSYVNWYQQKPGKAPKLVIYATTSLASGVPSRFSGSGSGTDFTLTISSLQPEDFATYYCQQSYNTPLTFGGGTKVEIK	2.96
369_C02 (antibody, V domains shown) VH: EVQLLESGGGLVQPGGSLRLSCAASGFTFDSYSMNWVRQAPGKGLEWVSNINYNGGYKSYADSVKGRFTISRDNSKNTLYLQMNSLRAEDTAVYYCARSANWHDTALDYWGQGTLVTVSS VL: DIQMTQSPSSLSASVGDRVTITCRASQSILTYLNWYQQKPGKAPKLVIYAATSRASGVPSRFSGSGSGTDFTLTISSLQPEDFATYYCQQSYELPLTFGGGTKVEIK	3.54

I am curious: what optical density value has been reported for 373_E05 (antibody, V domains shown) VH: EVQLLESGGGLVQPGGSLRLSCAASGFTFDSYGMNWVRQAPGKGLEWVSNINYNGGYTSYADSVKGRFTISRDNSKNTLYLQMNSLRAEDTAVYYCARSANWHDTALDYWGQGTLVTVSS VL: DIQMTQSPSSLSASVGDRVTITCRASQSILSYVNWYQQKPGKAPKLLIYAVTSRASGVPSRFSGSGSGTDFTLTISSLQPEDFATYYCQQSYDLPLTFGGGTKVEIK ?
3.24

Name the recorded optical density for 374_A07 (antibody, V domains shown) VH: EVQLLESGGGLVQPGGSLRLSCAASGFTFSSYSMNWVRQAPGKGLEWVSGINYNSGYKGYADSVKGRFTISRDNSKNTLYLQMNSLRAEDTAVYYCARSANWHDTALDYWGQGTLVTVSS VL: DIQMTQSPSSLSASVGDRVTITCRASQSILSYVNWYQQKPGKAPKLLIYAVTSRASGVPSRFSGSGSGTDFTLTISSLQPEDFATYYCQQSYDLPLTFGGGTKVEIK .
3.07

Fill blank: measured optical density of the binder 373_B04 (antibody, V domains shown) VH: EVQLLESGGGLVQPGGSLRLSCAASGFTFSSYGMNWVRQAPGKGLEWVAGINYNSGYKGYADSVKGRFTISRDNSKNTLYLQMNSLRAEDTAVYYCARSANWHDTALDYWGQGTLVTVSS VL: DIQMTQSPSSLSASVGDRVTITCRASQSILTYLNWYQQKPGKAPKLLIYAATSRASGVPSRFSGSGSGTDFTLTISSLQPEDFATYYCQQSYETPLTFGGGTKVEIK is ____.
3.25

Please report the recorded optical density for 371_G05 (antibody, V domains shown) VH: EVQLLESGGGLVQPGGSLRLSCAASGFTFDSYSMNWVRQAPGKGLEWVSGINYNSGYTGYADSVKGRFTISRDNSKNTLYLQMNSLRAEDTAVYYCARSANWHDTALDYWGQGTLVTVSS VL: DIQMTQSPSSLSASVGDRVTITCRASQSISSYLNWYQQKPGKAPKLLIYAVTSRASGVPSRFSGSGSGTDFTLTISSLQPEDFATYYCQQSYSSPLTFGGGTKVEIK .
3.08
